Assign growth to each entry below.
Tested on: SNB-19 CNS
method_notes: NCI-60 one-dose screen, 48 h (100 = growth as untreated, 0 = no growth, -100 = all killed)
setup_conditions: 10 µM unless noted
About 83,000 compounds went through this panel and 20% of them were active in at least one assay; those are over-represented in the sample as a whole.
Please state the figure in %; there is no need to write the unit.

query: State its growth: `CCCSc1nnc(-c2sc3nc4ccccc4n3c2C)o1`
result: 99.8

query: State its growth: `CN1CCc2c(sc3ncnc(N/N=C/c4cccc(Cl)c4Cl)c23)C1`
result: 4.21

query: State its growth: `COc1ccc2[nH]cc(-c3cc4nc(-c5cn(C)c6ncc(Br)cc56)cc(N)n4n3)c2c1`
result: -29.4

query: State its growth: `Cc1ccc(-c2cc(C(=O)N=Nc3c(O)[nH]c4ccc(F)cc34)c3ccccc3n2)cc1`
result: 41.9

query: State its growth: CCCCNc1ccc2c3c(cccc13)C(=O)N(NCC(O)COc1ccc3c(C)cc(=O)oc3c1)C2=O (centres undefined)
result: 83.9

query: State its growth: `COC(=O)c1cc(C(=O)C(Br)Br)n2c1ccc1c3ccccc3ccc12`
result: 58.6

query: State its growth: `COc1cc(CNC(=O)C[C@H](C)CCC=C(C)C)ccc1OCc1cn(-c2ccc(Cl)c(Cl)c2)nn1`
result: 81.3

query: State its growth: `COc1cc(-c2ccc3ncnc(N4CCc5ccc(Cl)cc54)c3c2)cnc1Cl`
result: 35

query: State its growth: `Cn1cc(-c2cc3nc(-c4cn(C)c5ncc(Br)cc45)cc(N)n3n2)c2cc(F)ccc21`
result: 58.3

---

Test system: MOLT-4 leukemia
method_notes: NCI-60 one-dose screen, 48 h (100 = growth as untreated, 0 = no growth, -100 = all killed)
setup_conditions: 10 µM unless noted
Compounds without any hit were thinned out: in the full panel of roughly 83,000, 20% have a hit.
measured_parameter: growth (%)
Please state the figure in %; there is no need to write the unit.

query: Report its growth with MOLT-4 leukemia as the test system: `COc1nc(N)ncc1-c1ccc2ncnc(N3CCc4cc(F)c(Cl)cc43)c2c1`
result: 62.9

query: Report its growth with MOLT-4 leukemia as the test system: CC1=C(C(=O)Nc2ccccc2)C(c2cccc3ccccc23)n2c(nc3ccccc32)N1 (stereo not drawn)
result: 67.5

query: Report its growth with MOLT-4 leukemia as the test system: `S=C(Nc1ccc(OCc2nc3ccc(Cl)cc3[nH]2)cc1)NC1CCCCC1`
result: 1.31

query: Report its growth with MOLT-4 leukemia as the test system: `COc1ccc(NC(=O)Cn2c(/C=C/c3ccc([N+](=O)[O-])cc3)nc3ccccc3c2=O)cc1`
result: 114

query: Report its growth with MOLT-4 leukemia as the test system: `COc1cc(/C=N/NC(=O)c2ccc(OCc3nc4ccc(Cl)cc4[nH]3)cc2)cc(OC)c1OC`
result: 12.1

query: Report its growth with MOLT-4 leukemia as the test system: `O=c1[nH]c2ccccc2cc1COc1ccc(Nc2nccc(-c3ccc(Cl)cc3)n2)cc1`
result: 102

query: Report its growth with MOLT-4 leukemia as the test system: Cc1nc(Nc2ccccn2)sc1C1=NNC(c2ccccc2F)C1 (stereo not drawn)
result: 25.4

query: Report its growth with MOLT-4 leukemia as the test system: `C/C(=N\Nc1ccc(S(N)(=O)=O)cc1)c1cnn(-c2cc(=O)[nH]c3ccc(Br)cc23)c1C`
result: 18.5

query: Report its growth with MOLT-4 leukemia as the test system: `Cc1cc(N=C(N)c2ccccc2)ccc1OCCCCCCCCn1ccnc1`
result: 14.1

query: Report its growth with MOLT-4 leukemia as the test system: `CCOC(=O)c1ccc(NC(=S)NC(=O)c2ccc(NC(=O)C(C)C)cc2OC)cc1`
result: -60.3

query: Report its growth with MOLT-4 leukemia as the test system: `O=C(NC(=S)N1CCN(c2ncnc3c2cnn3-c2ccccc2)CC1)c1ccc(F)cc1`
result: 45.2

query: Report its growth with MOLT-4 leukemia as the test system: `O=C1/C(=C/c2cccc3c2OCO3)Cc2c(F)cc(Br)cc21`
result: 106

query: Report its growth with MOLT-4 leukemia as the test system: `CN1CCN(C(=O)Oc2cc3c(c4ccccc24)[C@H](CCl)CN3C(=O)c2cc3cc(OCCCN4CCC4)ccc3[nH]2)[C@H]2CSSC[C@H]21`
result: -11.6

query: Report its growth with MOLT-4 leukemia as the test system: `Cc1ccc2nc(SCc3ccccc3F)n(-c3ccccc3)c(=O)c2c1`
result: 73.3

query: Report its growth with MOLT-4 leukemia as the test system: `O=C(N/N=C/c1occc1Br)c1[nH]c2ccc(Br)cc2c1-c1ccccc1`
result: -15.2

query: Report its growth with MOLT-4 leukemia as the test system: `O=C1c2cccc3c(N4CCN(Cc5ccccc5)CC4)ccc(c23)C(=O)N1c1cccc(-c2nn(-c3ccccc3)cc2-c2nc3ccccc3s2)c1`
result: 113

query: Report its growth with MOLT-4 leukemia as the test system: COc1ccc2c(c1)C(=O)N(C)C2C1c2c(cc3c(c2OC)OCO3)CCN1C (stereo not drawn)
result: 46.4

query: Report its growth with MOLT-4 leukemia as the test system: `COc1ccc(OC)c(Cn2cc(C#N)c(N)c2C(=O)c2ccc(Br)cc2)c1`
result: 20.4

query: Report its growth with MOLT-4 leukemia as the test system: `O=C(CSc1nc2sc3c(c2c(=O)n1-c1ccc(Cl)cc1)CCCC3)NNC(=O)c1ccc(Br)cc1`
result: 73.2

query: Report its growth with MOLT-4 leukemia as the test system: `CC1=C(C)C(=O)C(N2CCSCC2)=CC1=O`
result: 86.3

query: Report its growth with MOLT-4 leukemia as the test system: `COc1ccc(C(=O)c2c(N)c(C#N)cn2-c2ccc([N+](=O)[O-])cc2)cc1`
result: 105

query: Report its growth with MOLT-4 leukemia as the test system: `NNc1ncnc2sc3c(c12)CCN(Cc1ccccc1)C3`
result: 19.7

query: Report its growth with MOLT-4 leukemia as the test system: `C[C@H]1[C@@H](CC(=O)N[C@@H](Cc2coc3ccccc23)B(O)O)O[C@@H]2OC3(C)CC[C@H]4[C@H](C)CC[C@@H]1[C@@]24O3`
result: 14.2

query: Report its growth with MOLT-4 leukemia as the test system: `CN(C)c1nc(NCCNS(=O)(=O)c2ccc(C(=O)/C=C/c3ccc(F)cc3)cc2)nc(N2CCOCC2)n1`
result: -6.53

query: Report its growth with MOLT-4 leukemia as the test system: `Cc1cnc2ccc(Oc3ccccc3-c3ccccc3)nn12`
result: 107

query: Report its growth with MOLT-4 leukemia as the test system: `Oc1cncc(-c2ccc3ncnc(N4CCc5cc(F)c(Cl)cc54)c3c2)c1`
result: 57.6

query: Report its growth with MOLT-4 leukemia as the test system: `N#Cc1cc(-c2ccnc(Nc3ccc(N4CCN(C5COC5)CC4)cc3)n2)ccc1N1CCCC1`
result: 40.4

query: Report its growth with MOLT-4 leukemia as the test system: `N/C(=N\c1nc2ccccc2s1)NC(=O)Nc1ccccc1[N+](=O)[O-]`
result: 15.2

query: Report its growth with MOLT-4 leukemia as the test system: `O=C(Nc1ccc(S(=O)(=O)N2CCCCC2)cc1)C(Cl)Cl`
result: 117

query: Report its growth with MOLT-4 leukemia as the test system: `COc1ccc2[nH]c(O)c(N=NC(=O)c3ccc4nc(-c5ccc(Cl)cc5)[nH]c4c3)c2c1`
result: 15.7

query: Report its growth with MOLT-4 leukemia as the test system: CN1C(=O)C2(C(C#N)=C(c3ccc(Cl)cc3)Nc3c2c(-c2ccccc2)nn3-c2ccccc2)c2ccccc21 (stereo not drawn)
result: 64.4

query: Report its growth with MOLT-4 leukemia as the test system: COc1ccc2c(c1)C(Sc1ccc(F)cc1)c1c(nc(N)c(C#N)c1N)O2 (stereo not drawn)
result: 53.9

query: Report its growth with MOLT-4 leukemia as the test system: CC1=C(C(=O)OCc2ccccc2)C(c2ccc(N(C)C)cc2)n2c(nc3ccccc32)N1 (stereo not drawn)
result: 100

query: Report its growth with MOLT-4 leukemia as the test system: `Cc1oc(-c2ccccc2)nc1CN[C@@H]1C[C@@H]2C[C@H]([C@H]1C)C2(C)C`
result: 0.127

query: Report its growth with MOLT-4 leukemia as the test system: `COc1cc(NC(=O)CSc2nnc(-c3ccc(-c4nc5ccc(Cl)cc5[nH]4)cc3)o2)cc(OC)c1OC`
result: 34.2

query: Report its growth with MOLT-4 leukemia as the test system: `O=C1Nc2ccccc2/C1=C\c1ccc(OCC(=O)c2ccc(Br)cc2)cc1`
result: 8.54

query: Report its growth with MOLT-4 leukemia as the test system: `Cc1ccc(NC(=O)N/N=C/c2c[nH]c3ccccc23)c(C)c1`
result: 6.25

query: Report its growth with MOLT-4 leukemia as the test system: `COc1ccc2[nH]c(O)c(N=Nc3nc(-c4ccc(Br)cc4)cs3)c2c1`
result: -17.7
